STUDY CONDITIONS: in acetone, 303.15 K
OBSERVED PROPERTY: solubility (mole fraction)

ENTRY SMILES	MEASUREMENT
O=C1NS(=O)(=O)c2ccccc21	0.0422

----------
STUDY CONDITIONS: in ethyl acetate, 308.15 K

ENTRY SMILES	solubility (mole fraction)
O=C1NS(=O)(=O)c2ccccc21	0.0287

----------
STUDY CONDITIONS: in isopropanol, 283.15 K

ENTRY SMILES	solubility (mole fraction)
O=C1NS(=O)(=O)c2ccccc21	0.0045

----------
STUDY CONDITIONS: in methanol, 323.15 K

ENTRY SMILES	solubility (mole fraction)
O=C1NS(=O)(=O)c2ccccc21	0.0257
